assay: NCI Yeast Anticancer Drug Screen. Data for the cln2 rad14 strain (AID 165);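 note: 0% = growth equal to vehicle treated cultures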; conditions: S. cerevisiae cln2 rad14 strain, hits give high values; at 50.0 µM unless noted
Compounds without any hit were thinned out: in the full panel of roughly 79,000, 15% have a hit.
Measured growth inhibition by item
Measurement name: growth inhibition (%)

compound="CCCCN(CCCC)CCCC(O)c1c2ccccc2nc2ccccc12 (stereo not drawn)" measurement_name="growth inhibition" reading_unit=% assay_result=-13.9
compound=OCCCNCc1ccccn1 measurement_name="growth inhibition" reading_unit=% assay_result=22.2
compound=CCSc1[nH]c(Nc2nc(-c3ccccc3)n(-c3ccccc3)n2)c(C(N)=O)c1C(N)=O measurement_name="growth inhibition" reading_unit=% assay_result=-5.85
compound=O=C(Nc1ccc(-c2cn3ccccc3n2)cc1)c1ccccc1O measurement_name="growth inhibition" reading_unit=% assay_result=36.1
compound="CCCCCCCCN(CCCCCCCC)CC(O)c1cc(Cl)c(Cl)c(Cl)c1 (stereo not drawn)" measurement_name="growth inhibition" reading_unit=% assay_result=53.9
compound="CCCCC(OC(=O)c1ccccc1)c1cc(OC(=O)c2ccccc2)c2c(c1OC(=O)c1ccccc1)CC(C)=C(C)C2 (stereo not drawn)" measurement_name="growth inhibition" reading_unit=% assay_result=53.4
compound=CCc1cc(N(C)C)ccc1N=Nc1ccc([N+](=O)[O-])cc1 measurement_name="growth inhibition" reading_unit=% assay_result=-26.1
compound=CCOc1ccc2c(c1)S(=O)(=O)OC2=O measurement_name="growth inhibition" reading_unit=% assay_result=25.6

###

assay: NCI Yeast Anticancer Drug Screen. Data for the rad50 strain (AID 155);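 note: 0% = growth of vehicle-only cultures of the same strain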; settings: S. cerevisiae rad50 strain growth inhibition, hits give high values; at 50.0 µM unless noted
The panel holds about 79,000 compounds, 15% with a hit somewhere; the sample as a whole holds those more often.
Measurement name: growth inhibition (%)

compound=CCOC(=O)c1sc(SC)nc1NC(=O)c1ccccc1 assay_result=-18.4
compound=CC1(C)N=C(N)N=C(N)N1c1ccc(N)cc1 assay_result=1.7
compound="COc1ccccc1C(=O)NCC1CCCN2CCCCC12 (stereo unspecified)" assay_result=6.5
compound=COc1ccc(C2=N/C(=C\c3ccccc3)C(=O)O2)cc1 assay_result=-4.05
compound="OC(CN1CCCC1)c1ccccc1 (stereo unspecified)" assay_result=-1.8
compound="CCCCCC[N+]1([O-])CC[N+]([O-])(CCCCCC)CC1 (stereo unspecified)" assay_result=-6.6
compound=O=C(Nc1ccc(Cl)c(Cl)c1)N(CCO)Cc1ccccc1 assay_result=88.7
compound=Cc1ccc(S(=O)(=O)Nc2ccccc2-c2nc3ccc(C)cc3c(=O)o2)cc1 assay_result=-5.35
compound="CCCCOC(=O)C1CN2C=CC=NC2=NC1(C(F)(F)F)C(F)(F)F (stereo unspecified)" assay_result=-16.1
compound="Cc1ccc(S(=O)(=O)OCC2C3C=CC(C4C=CC43)C2COS(=O)(=O)c2ccc(C)cc2)cc1 (stereo unspecified)" assay_result=-4.25
compound=[O-][N+](=Nc1ccc2c(c1)Cc1ccccc1-2)c1ccc2c(c1)Cc1ccccc1-2 assay_result=25.7
compound=CC(C)c1cccc(C(C)C)c1NC(=O)N1CCCCC1 assay_result=4.8
compound=O=C(O)c1ccc(NCn2c(=S)sc3ccccc32)cc1 assay_result=6.45
compound=COC(=O)/C=C(\C(=O)OC)N1CCCCC1 assay_result=1.55
compound="Cc1ccc(S(=O)(=O)/N=S(/Cc2ccccc2)c2c(C)cccc2C)cc1 (stereo unspecified)" assay_result=20.9
compound="O=S1(=O)C2C=CC1C(Br)C(Br)CC2 (stereo unspecified)" assay_result=-9.4
compound="COC(=O)C1CC2(CCC1=O)Cc1ccccc1C2=O (stereo unspecified)" assay_result=-15.5
compound=O=C(NCCCl)c1ccc(Cl)c(Cl)c1 assay_result=2.8
compound=Cc1ccc(O)c(-c2ccnn2-c2ccccc2)c1 assay_result=20.5
compound=CCCCCCCCCCCCCCCCCn1nnnc1N assay_result=-8.3
compound=CN(C)CCNC(=O)Cn1ccc(=O)c2ccc([N+](=O)[O-])cc21 assay_result=11.9
compound=O=C1c2cc(Cc3ccccc3)c(=O)c(Cc3ccccc3)cc2C(=O)c2cc(Cc3ccccc3)c(=O)c(Cc3ccccc3)cc21 assay_result=23
compound=Cc1ccc(OS(=O)(=O)c2cccc(S(=O)(=O)Oc3ccc(C)cc3)c2)cc1 assay_result=19.9
compound=CC(C)N=C(N)N=C(N)N assay_result=30.9
compound=Cc1cc(C)c(CC(=O)c2ccccc2)c(C)c1 assay_result=0
compound=Cc1c(CCN2CCOCC2)c(N2CCOCC2)n2c(nc3ccccc32)c1C#N assay_result=-14.7
compound=Cc1cccc(/C=N/NC(=S)NC(C)(C)C)n1 assay_result=-17.4
compound=CC1(C)CC[C@]2(C(=O)O)CC[C@]3(C)C(=CC[C@@H]4[C@@]5(C)CC[C@H](O)C(C)(C)[C@@H]5CC[C@]43C)[C@@H]2C1 assay_result=-3.7
compound="CC1OC(O[C@H]2CC[C@]3(C)[C@H]4CC=C5[C@@H]6[C@@H](C)[C@H](C)CC[C@]6(C(=O)OC6OC(CO)C(O)C(O)C6O)CC[C@@]5(C(=O)O)[C@]4(C)CC[C@H]3C2(C)C)C(O)C(O)C1O (stereo partly specified)" assay_result=-11.8
compound=COC1(OC)C(C#N)=C(c2ccccc2)C1(OC)OC assay_result=-8
compound=O=C(O)C1=CCCc2ccc3ccccc3c21 assay_result=10.2
compound=N=c1oc(-c2ccccc2)cc2ccccc12 assay_result=29.8
compound=C/C(=N\Nc1nc2ccccc2s1)c1ccc2c(c1)Sc1ccccc1O2 assay_result=42.9
compound=O=C(Nc1ccc(Cl)cc1)Nc1nnc(-c2cccc(Cl)c2)o1 assay_result=5.8
compound=CN(C)c1ccccc1C(=O)N/N=C\c1ccc(-c2ccccc2)cc1 assay_result=7.05
compound=Nc1ccccc1NC(=O)C(F)(F)C(F)(F)C(F)(F)C(=O)Nc1ccccc1N assay_result=3.15
